Molecular target: Human immunodeficiency virus type 1 integrase (Human immunodeficiency virus 1) (UniProt Q7ZJM1)
Sequence (Q7ZJM1 as listed by the source): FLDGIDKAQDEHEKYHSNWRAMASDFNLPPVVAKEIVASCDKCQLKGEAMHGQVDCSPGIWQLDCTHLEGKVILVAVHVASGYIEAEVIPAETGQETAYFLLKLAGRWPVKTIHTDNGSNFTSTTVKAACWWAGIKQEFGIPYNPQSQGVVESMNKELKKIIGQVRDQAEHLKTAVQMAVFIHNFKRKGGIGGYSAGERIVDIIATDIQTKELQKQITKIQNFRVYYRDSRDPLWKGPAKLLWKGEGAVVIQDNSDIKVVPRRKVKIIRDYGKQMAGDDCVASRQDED
Assay: Binding affinity to His6-tagged recombinant HIV1 Integrase assessed as inhibition of protein interaction with 3xFLAG-tagged LEDGF/p75 at 100 uM preincubated for 30 mins followed by 3xFLAG-tagged LEDGF/p75 addition measured after 60 mins by AlphaScreen assay relative to control
Calls of active or inactive are those of the source. The calls are words filed in the database; no cut-off is given here.
metric: inhibition

smiles.representation | inhibition
O=C(O)c1cc(Nc2ccc(O)c3ccccc23)ccc1O | 88%
Oc1ccc(Nc2ccc(O)c3ccccc23)cc1 | 95%
Fc1ccc(Nc2ccc(F)c3ccccc23)cc1 | 63%
O=C(O)c1ccc(Nc2ccc3ccccc3c2O)cc1 | 66%
COc1ccc(Nc2ccc(C(=O)O)cc2)c2ccccc12 | 33%
O=S(=O)(c1ccc(O)cc1)c1ccc(O)c2ccccc12 | 30%

Please look at the following molecule next.
query: Give the measured inhibition of COc1ccc(Sc2ccc(OC)c3ccccc23)cc1 .
result: inactive

###

Target: Human immunodeficiency virus type 1 integrase (Human immunodeficiency virus 1) (UniProt Q7ZJM1)
Test: Binding affinity to His6-tagged recombinant HIV1 Integrase assessed as inhibition of protein interaction with 3xFLAG-tagged LEDGF/p75 at 100 uM preincubated for 30 mins followed by 3xFLAG-tagged LEDGF/p75 addition measured after 60 mins by AlphaScreen assay relative to control
Active and inactive are the calls of the source. The rule behind the calls is not given here.
metric: inhibition

Guide cases for inhibition, answers given:
smiles.representation | inhibition
O=C(O)c1ccc(Cn2cc(C(=O)O)c(=O)c3ccccc32)cc1 | 16%
COC(=O)c1ccc(Nc2ccc3ccccc3c2OC)cc1 | inactive
COC(=O)c1cc(Nc2ccc(OC)c3ccccc23)ccc1OC | inactive
COc1ccccc1Nc1ccc(OC)c2ccccc12 | inactive
COc1ccc(Nc2ccccc2)c2ccccc12 | inactive

Then there is this molecule:
query: Returns the measured inhibition for the input molecule. Input: COC(=O)c1ccccc1Nc1c(O)ccc2ccccc12
result: 28%

###

Experiment: Cytotoxicity against human MT4 cells assessed as reduction in cell viability by MTT assay
Format: cell-based
metric: CC50 (µM)
Response body: numeric value in µM, unit text excluded.

// solved cases for CC50 follow
compound | metric | unit.abbrev | endpoint.result
Cc1ccc(-c2c(C(OC(C)(C)C)C(=O)O)ccc3sc(C)cc23)cc1 (centres undefined) | CC50 | µM | 96
COC(=O)c1ccc(Nc2cccc3ccccc23)cc1 | CC50 | µM | 27.5
COc1ccc2ccccc2c1Nc1c(OC)ccc2ccccc12 | CC50 | µM | 3.41
COc1ccc(I)cc1Nc1ccc(OC)c2ccccc12 | CC50 | µM | 12.5
O=C(O)c1cc(Nc2ccc(O)c3ccccc23)ccc1O | CC50 | µM | 126

query: // CC50 lookup, key: CCOC(=O)c1cn(Cc2ccc(C(=O)OC)cc2)c2ccccc2c1=O
result: 5.63

query: Which value of CC50 has been reported for O=C(O)c1ccc(Nc2ccc3ccccc3c2O)cc1 in the records?
result: 23.7

query: Returns the measured CC50 for the input compound. Input: O=C(O)c1ccc(Nc2ccc(O)c3ccccc23)cc1
result: 1.07

query: Value lookup for CC50; key = Fc1ccc(Nc2ccc(F)c3ccccc23)cc1
result: 38.4

###

Reported inhibition values for the following compounds.
Species on record: Homo sapiens
Assay: Inhibition of FLAG-tagged GST (unknown origin) at 100 uM by emission quenching AlphaScreen assay relative to control

Check out these entries, answers already filled in.
smiles.representation | inhibition
COc1ccc2ccccc2c1Nc1c(OC)ccc2ccccc12 | 74%
O=C(O)c1cc(Nc2ccc(O)c3ccccc23)ccc1O | 52%
O=C(O)c1ccc(Nc2ccc(O)c3ccccc23)cc1 | 16%

query: Give the measured inhibition of COC(=O)c1cc(Nc2ccc(OC)c3ccccc23)ccc1OC .
result: 92%

query: Look at this compound and give its reported inhibition. Oc1ccc(Nc2ccc(O)c3ccccc23)cc1
result: 84%

###

Biological target: UniProt Q7ZJM1
Assay: Binding affinity to His6-tagged recombinant HIV1 Integrase assessed as inhibition of protein interaction with 3xFLAG-tagged LEDGF/p75 at 100 uM preincubated for 30 mins followed by 3xFLAG-tagged LEDGF/p75 addition measured after 60 mins by AlphaScreen assay relative to control
Each item that follows carries a reported inhibition.
Give a bare numeral; the unit % is implied.

smiles.representation | assay.system | inhibition, %
COC(=O)c1ccc(Nc2ccc(OC)c3ccccc23)cc1 | UniProt Q7ZJM1 | 59

query: Which measured inhibition value corresponds to COC(=O)c1ccc(Nc2ccc3ccccc3c2O)cc1 ?
result: 58

query: Please look up its inhibition: Oc1ccc(Sc2ccc(O)c3ccccc23)cc1
result: 38

###

Target: Human immunodeficiency virus type 1 integrase (Human immunodeficiency virus 1) (UniProt Q7ZJM1)
Assay: Binding affinity to His6-tagged recombinant HIV1 Integrase assessed as inhibition of protein interaction with 3xFLAG-tagged LEDGF/p75 at 100 uM preincubated for 30 mins followed by 3xFLAG-tagged LEDGF/p75 addition measured after 60 mins by AlphaScreen assay relative to control
The source made the active and inactive calls. The calls are words filed in the database; no cut-off is given here.
metric: inhibition

Please review the entries below; each comes with its answer.
smiles.representation | inhibition
COc1ccc2ccccc2c1Nc1c(OC)ccc2ccccc12 | 100%
COc1ccc(Nc2ccc(OC)c3ccccc23)cc1C(=O)O | 41%
COC(=O)c1ccccc1Nc1c(OC)ccc2ccccc12 | inactive
COc1c(Nc2ccc(I)cc2)ccc2ccccc12 | inactive

Okay, next one:
query: I am curious: what inhibition value has been reported for COC(=O)c1ccc(Nc2ccc(O)c3ccccc23)cc1 ?
result: 49%
